- TARGET OR SYSTEM: Histone deacetylase 11 (Homo sapiens, UniProt Q96DB2)
- Sequence (Q96DB2 whole entry): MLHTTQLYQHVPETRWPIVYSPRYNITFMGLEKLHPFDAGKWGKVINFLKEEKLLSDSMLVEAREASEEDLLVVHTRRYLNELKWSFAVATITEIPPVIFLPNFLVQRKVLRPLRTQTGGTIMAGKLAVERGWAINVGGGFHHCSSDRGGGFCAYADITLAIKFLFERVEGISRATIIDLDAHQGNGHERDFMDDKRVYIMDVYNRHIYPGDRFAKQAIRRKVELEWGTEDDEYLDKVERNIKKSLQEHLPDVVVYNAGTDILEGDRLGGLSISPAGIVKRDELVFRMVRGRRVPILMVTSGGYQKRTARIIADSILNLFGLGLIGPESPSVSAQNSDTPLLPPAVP
- EXPERIMENT DESCRIPTION: Inhibition of recombinant HDAC11 by fluorimetric assay
MEASURED ATTRIBUTE: Ki

For O=C(/C=C/c1ccc2c(c1)nc(CCc1ccccc1)n2CCN1CCCC1)NO , what is its reported Ki?
12.8 nM

###

- TARGET OR SYSTEM: Protein deacetylase HDAC6 (Homo sapiens, UniProt Q9UBN7)
- Sequence (Q9UBN7 whole entry): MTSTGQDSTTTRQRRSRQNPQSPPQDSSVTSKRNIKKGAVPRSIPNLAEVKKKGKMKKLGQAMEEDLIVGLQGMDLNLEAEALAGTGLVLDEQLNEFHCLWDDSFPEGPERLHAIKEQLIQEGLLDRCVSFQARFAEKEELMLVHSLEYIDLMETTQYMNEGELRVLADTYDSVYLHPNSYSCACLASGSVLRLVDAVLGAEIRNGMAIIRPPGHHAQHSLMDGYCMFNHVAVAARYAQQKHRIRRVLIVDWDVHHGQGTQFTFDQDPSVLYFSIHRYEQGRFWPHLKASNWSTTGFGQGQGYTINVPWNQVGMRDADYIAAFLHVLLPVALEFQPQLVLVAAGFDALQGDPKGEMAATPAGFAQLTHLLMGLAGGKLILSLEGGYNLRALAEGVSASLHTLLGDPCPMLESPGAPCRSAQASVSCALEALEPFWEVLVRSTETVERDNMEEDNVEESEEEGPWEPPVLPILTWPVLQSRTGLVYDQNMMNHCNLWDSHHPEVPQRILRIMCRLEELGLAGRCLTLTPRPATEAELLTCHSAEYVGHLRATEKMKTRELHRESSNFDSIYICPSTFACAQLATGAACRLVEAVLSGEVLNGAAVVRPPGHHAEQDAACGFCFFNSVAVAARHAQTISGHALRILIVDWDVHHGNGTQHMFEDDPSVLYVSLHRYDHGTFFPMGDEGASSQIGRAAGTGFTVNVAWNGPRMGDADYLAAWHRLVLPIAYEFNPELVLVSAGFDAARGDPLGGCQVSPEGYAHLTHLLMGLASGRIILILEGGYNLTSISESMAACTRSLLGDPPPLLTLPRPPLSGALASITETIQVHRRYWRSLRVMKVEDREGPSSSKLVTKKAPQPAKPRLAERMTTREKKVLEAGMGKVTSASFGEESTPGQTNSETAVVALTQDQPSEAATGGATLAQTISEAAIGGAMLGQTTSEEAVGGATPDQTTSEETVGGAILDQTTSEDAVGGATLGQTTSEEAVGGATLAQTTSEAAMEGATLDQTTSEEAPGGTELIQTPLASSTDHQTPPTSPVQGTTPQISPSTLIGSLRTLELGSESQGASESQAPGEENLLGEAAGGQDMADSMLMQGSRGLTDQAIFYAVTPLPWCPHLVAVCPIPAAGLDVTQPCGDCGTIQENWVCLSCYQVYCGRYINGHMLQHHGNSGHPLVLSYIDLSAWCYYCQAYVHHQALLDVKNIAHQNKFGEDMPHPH
- EXPERIMENT DESCRIPTION: Inhibition of recombinant HDAC6 by fluorimetric assay
MEASURED ATTRIBUTE: Ki (µM)
Answers are plain numbers, in µM.

For O=C(/C=C/c1ccc2c(c1)nc(CCc1ccccc1)n2CCN1CCCC1)NO , what is its reported Ki?
0.0206

###

- Test system: COLO 205
- EXPERIMENT DESCRIPTION: Antiproliferative activity against human COLO205 cells after 96 hrs by celltiter assay
- Assay type: functional, cell-based
- EXPERIMENTAL SETUP: COLO 205, 96 h
MEASURED ATTRIBUTE: log10(IC50) (log10 of the value in nM)
Please keep in mind that the values are log10 of IC50 expressed in nM.

[[record]]
compound = "CN(C)CCCn1c(CCc2ccccc2)nc2cc(/C=C/C(=O)NO)ccc21"
measured_attribute = "log10(IC50)"
result_value = 3.30


Hi! Can you tell me log10(IC50) for each of these compounds?
1. CC(Cc1nc2cc(/C=C/C(=O)NO)ccc2n1CCCO)c1ccccc1 (stereo unspecified)
2. O=C(/C=C/c1ccc2c(c1)nc(CCc1ccccc1)n2Cc1ccccn1)NO
3. Cn1c(CCc2ccccc2)nc2cc(/C=C/C(=O)NO)ccc21
4. CCCn1c(CCc2ccccc2)nc2cc(/C=C/C(=O)NO)ccc21
5. O=C(/C=C/c1ccc2c(c1)nc(CCc1ccccc1)n2CCCN1CCOCC1)NO

1. 3.23
2. 2.94
3. 3.08
4. 3.36
5. 3.28

Hi! Can you tell me log10(IC50) for each of these compounds?
1. CN(C)CCCCn1c(CCc2ccccc2)nc2cc(/C=C/C(=O)NO)ccc21
2. COc1cc(Cn2c(CCc3ccccc3)nc3cc(/C=C/C(=O)NO)ccc32)cc(OC)c1OC
3. O=C(/C=C/c1ccc2c(c1)nc(C1CCCCC1)n2CCCO)NO
4. CCCCCCCCc1nc2cc(/C=C/C(=O)NO)ccc2n1CCCO

3.04
2.51
4.49
3.57

Hi! Can you tell me log10(IC50) for each of these compounds?
1. CN(C)CC(C)(C)Cn1c(CCc2ccccc2)nc2cc(/C=C/C(=O)NO)ccc21
2. CCn1c(CCc2ccccc2)nc2cc(/C=C/C(=O)NO)ccc21
3. O=C(/C=C/c1ccc2nc(CCc3ccccc3)[nH]c2c1)NO
4. O=C(/C=C/c1ccc2c(c1)nc(CCc1ccccc1)n2CCCN1CCCC1=O)NO

1. 2.08
2. 3.18
3. 3.64
4. 4.04

###

- TARGET OR SYSTEM: Histone deacetylase 9 (Homo sapiens)
- Sequence (Q9UKV0 whole entry): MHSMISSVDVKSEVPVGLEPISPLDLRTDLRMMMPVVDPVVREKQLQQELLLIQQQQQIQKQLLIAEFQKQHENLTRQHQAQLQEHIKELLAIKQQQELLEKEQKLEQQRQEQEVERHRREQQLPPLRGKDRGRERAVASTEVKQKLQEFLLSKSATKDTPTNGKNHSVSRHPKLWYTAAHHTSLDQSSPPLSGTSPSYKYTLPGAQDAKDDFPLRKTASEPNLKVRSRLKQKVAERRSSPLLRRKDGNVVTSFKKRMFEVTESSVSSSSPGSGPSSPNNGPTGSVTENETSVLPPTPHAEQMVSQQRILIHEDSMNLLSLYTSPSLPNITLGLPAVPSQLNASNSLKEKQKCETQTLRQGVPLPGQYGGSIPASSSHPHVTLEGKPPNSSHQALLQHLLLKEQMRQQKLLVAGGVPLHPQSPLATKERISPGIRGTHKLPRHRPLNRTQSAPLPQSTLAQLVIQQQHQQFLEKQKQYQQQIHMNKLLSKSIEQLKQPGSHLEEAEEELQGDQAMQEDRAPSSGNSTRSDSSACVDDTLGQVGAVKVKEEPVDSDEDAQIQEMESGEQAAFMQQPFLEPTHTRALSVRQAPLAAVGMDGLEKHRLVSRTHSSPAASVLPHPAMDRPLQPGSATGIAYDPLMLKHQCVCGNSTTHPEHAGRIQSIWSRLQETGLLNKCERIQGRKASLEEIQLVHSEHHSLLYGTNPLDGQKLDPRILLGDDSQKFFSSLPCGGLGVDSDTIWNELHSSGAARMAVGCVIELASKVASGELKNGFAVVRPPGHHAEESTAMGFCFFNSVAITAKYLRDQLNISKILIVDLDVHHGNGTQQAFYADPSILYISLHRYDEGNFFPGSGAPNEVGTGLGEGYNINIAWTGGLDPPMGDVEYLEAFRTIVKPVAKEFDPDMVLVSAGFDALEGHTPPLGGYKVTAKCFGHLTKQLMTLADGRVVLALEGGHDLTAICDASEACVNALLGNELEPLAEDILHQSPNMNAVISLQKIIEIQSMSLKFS
- EXPERIMENT DESCRIPTION: Inhibition of recombinant HDAC9 by fluorimetric assay
MEASURED ATTRIBUTE: Ki (nM)
One number for each entry, in nM.

For O=C(/C=C/c1ccc2c(c1)nc(CCc1ccccc1)n2CCN1CCCC1)NO , what is its reported Ki?
19.2

###

- EXPERIMENT DESCRIPTION: in vitro
- EXPERIMENTAL SETUP: human, liver microsomes
Would you kindly list half-life for each of these molecules?
Numbers only, in min.

Field: example entries. Status: answers known.
[[record]]
line_notation = "CCN(CC)CCn1c(CCc2ccccc2)nc2cc(/C=C/C(=O)NO)ccc21.Cl.Cl"
unit = "min"
result_value = 16

[[record]]
line_notation = "Cl.Cl.O=C(/C=C/c1ccc2c(c1)nc(CCc1ccccc1)n2CCN1CCCCC1)NO"
unit = "min"
result_value = 10


Please find the next molecule below.
For CN(C)CC(C)(C)Cn1c(CCc2ccccc2)nc2cc(/C=C/C(=O)NO)ccc21.Cl.Cl , what is its reported half-life?
12

###

- EXPERIMENT DESCRIPTION: Toxicity in ip dosed athymic mouse assessed as maximum tolerated dose
- Format: organism-based
- EXPERIMENTAL SETUP: in vivo
Would you kindly list MTD for each of these molecules?
Give bare numbers, in mg/kg.

Field: example entries. Status: answers known.
[[record]]
molecule = "O=C(CCCCCCC(=O)Nc1ccccc1)NO [VORINOSTAT]"
measured_attribute = "MTD"
result_value = 200

[[record]]
molecule = "O=C(/C=C/c1ccc2c(c1)nc(CCc1ccccc1)n2CCN1CCCC1)NO"
measured_attribute = "MTD"
result_value = 130

[[record]]
molecule = "Cn1c(CCc2ccccc2)nc2cc(/C=C/C(=O)NO)ccc21"
measured_attribute = "MTD"
result_value = 50


Hi! Can you tell me MTD for each of these molecules?
1. CCN(CC)CCn1c(CCc2ccccc2)nc2cc(/C=C/C(=O)NO)ccc21
2. O=C(/C=C/c1ccc2c(c1)nc(CCc1ccccc1)n2CCN1CCCCC1)NO

1. 60
2. 75

###

- EXPERIMENT DESCRIPTION: in vitro
- EXPERIMENTAL SETUP: mouse, liver microsomes
- Description: Metabolic stability in mouse liver microsomes assessed as half life
MEASURED ATTRIBUTE: half-life (min)
Answers are plain numbers, in min.

[[record]]
line_notation = "Cl.Cl.O=C(/C=C/c1ccc2c(c1)nc(CCc1ccccc1)n2CCN1CCCC1)NO"
unit = "min"
result_value = 2.7

[[record]]
line_notation = "Cl.Cn1c(CCc2ccccc2)nc2cc(/C=C/C(=O)NO)ccc21"
unit = "min"
result_value = 23


Please find the next molecule below.
For CCN(CC)CCn1c(CCc2ccccc2)nc2cc(/C=C/C(=O)NO)ccc21.Cl.Cl , what is its reported half-life?
2.8

###

- Tested on: COLO 205
- EXPERIMENT DESCRIPTION: Antiproliferative activity against human COLO205 cells after 96 hrs by celltiter assay
- Format: functional, cell-based
- EXPERIMENTAL SETUP: COLO 205, 96 h
Would you kindly list pIC50 for each of these molecules?
Answers are plain numbers, as −log10 of the molar value.

Field: example entries. Status: answers known.
[[record]]
line_notation = "O=C(/C=C/c1ccc2c(c1)nc(CCc1ccccc1)n2CCCN1CCCC1)NO"
measured_attribute = "pIC50"
result_value = 6.21

[[record]]
line_notation = "O=C(/C=C/c1ccc2c(c1)nc(-c1ccsc1)n2CCCO)NO"
measured_attribute = "pIC50"
result_value = 4.51

[[record]]
line_notation = "COCCCn1c(CCc2ccccc2)nc2cc(/C=C/C(=O)NO)ccc21"
measured_attribute = "pIC50"
result_value = 5.66

[[record]]
line_notation = "O=C(NO)c1ccc2c(c1)nc(CCc1ccccc1)n2CCCO"
measured_attribute = "pIC50"
result_value = 4.59

[[record]]
line_notation = "CCN(CC)CCn1c(CCc2ccccc2)nc2cc(/C=C/C(=O)NO)ccc21"
measured_attribute = "pIC50"
result_value = 6.66


Hi! Can you tell me pIC50 for each of these molecules?
1. O=C(/C=C/c1ccc2c(c1)nc(CCc1ccccc1)n2CCN1CCOCC1)NO
2. O=C(/C=C/c1ccc2nc(CCc3ccccc3)n(Cc3ccccc3)c2c1)NO
3. O=C(/C=C/c1ccc2c(c1)nc(CCc1ccccc1)n2CCc1ccccc1)NO
4. CC(C)Cc1nc2cc(/C=C/C(=O)NO)ccc2n1CCCO

1: 5.55; 2: 5.27; 3: 5.06; 4: 4.59

###

- TARGET OR SYSTEM: Histone deacetylase 8 (Homo sapiens, UniProt Q9BY41)
- Sequence (Q9BY41 whole entry): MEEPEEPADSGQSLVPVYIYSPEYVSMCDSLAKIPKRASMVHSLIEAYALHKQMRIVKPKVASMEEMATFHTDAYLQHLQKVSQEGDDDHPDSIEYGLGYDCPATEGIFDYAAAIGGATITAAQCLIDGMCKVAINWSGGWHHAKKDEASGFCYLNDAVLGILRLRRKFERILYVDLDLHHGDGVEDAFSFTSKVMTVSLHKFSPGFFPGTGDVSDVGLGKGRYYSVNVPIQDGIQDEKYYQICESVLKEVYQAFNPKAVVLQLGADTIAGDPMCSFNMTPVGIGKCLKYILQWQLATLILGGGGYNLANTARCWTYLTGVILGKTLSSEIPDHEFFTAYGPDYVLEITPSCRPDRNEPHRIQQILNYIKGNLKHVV
- EXPERIMENT DESCRIPTION: Inhibition of recombinant HDAC8 by fluorimetric assay
MEASURED ATTRIBUTE: pKi
Give bare numbers, as −log10 of the molar value.

For O=C(/C=C/c1ccc2c(c1)nc(CCc1ccccc1)n2CCN1CCCC1)NO , what is its reported pKi?
7.09

###

- Tested on: HCT-116
- EXPERIMENT DESCRIPTION: Antiproliferative activity against human HCT116 cells after 96 hrs by celltiter assay
- Assay type: functional, cell-based
- EXPERIMENTAL SETUP: HCT-116, 96 h
The label YES is reserved for IC50 strictly under 200 nM; NO covers values equal to or above it.

[[record]]
line_notation = "CN(C)CC(C)(C)Cn1c(CCc2ccccc2)nc2cc(/C=C/C(=O)NO)ccc21.Cl.Cl"
class_assignment = "YES"

[[record]]
line_notation = "CCN(CC)CCn1c(CCc2ccccc2)nc2cc(/C=C/C(=O)NO)ccc21.Cl.Cl"
class_assignment = "NO"

[[record]]
line_notation = "Cl.Cn1c(CCc2ccccc2)nc2cc(/C=C/C(=O)NO)ccc21"
class_assignment = "NO"


Now examine the next entry.
Hello, is IC50 of the following compound strictly smaller than 200 nM? Cl.Cl.O=C(/C=C/c1ccc2c(c1)nc(CCc1ccccc1)n2CCN1CCCCC1)NO
YES

Recorded values, source ChEMBL document CHEMBL1152878.
